- target_entity: recombinant human IL-17A (human, UniProt Q16552 24-155)
- Sequence (Q16552 24-155): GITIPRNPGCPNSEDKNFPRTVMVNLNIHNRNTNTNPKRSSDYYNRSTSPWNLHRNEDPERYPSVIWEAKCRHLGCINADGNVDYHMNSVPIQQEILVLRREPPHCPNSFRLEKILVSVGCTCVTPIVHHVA
- experiment: cell-based or functional assay
assay_endpoint: Cell assay IC50 (nM), IL-17A-induced IL6 release from HT1080

binder	u	recorded_value
Clone 1.2 (VHH) VHH: EVQLVESGGGLVQPGGSLRLSCAASGFTFSSYSMYWVRQAPGKGLEWVAEIKQDGSVQYYVSDVKGRFTISRDNAKNSLYLQMNSLRAEDTAVYYCAKGEILPLYFDYWGQGTLVTVSS	nM	0.4
VH 1.7.1 (clone 1.7 expressed from phagemid vector: with linker residues and His tag) (VHH, Human single VH domain) VHH: QVQLVESGGGLVQPGGSLRLSCAASGFTFSSYGMYWVRQAPGKGLEWVAKIEQDGSEEYYVDSVKGRFTISRDNAKKSLYLQMNSLRAEDTAVYYCAKGEILPLYFDYWGQGTLVTVSS	nM	2
VH 1.6.1 (clone 1.6 expressed from phagemid vector: with linker residues and His tag) (VHH, Human single VH domain) VHH: EVQLVESGGGLVQPGGSLRLSCAASGFTFSSYSMYWVRQAPGKGLEWVAEIKQDGSEQYYVDSVKGRFTISRDNAKNSLYLQMNSLRAEDTAVYYCAKGEILPLYFDYWGQGTLVTVSS	nM	1.3
VH 1.18.1 (clone 1.18 expressed from phagemid vector: with linker residues and His tag) (VHH, Human single VH domain) VHH: EVQLVESGGGLVQPGGSLRLSCAASGFTFSSYSMYWVRQAPGKGLEWVAEIKQDGSVQYYVGGVKGRFTISRDNAKNSLYLQMNSLRAEDTAVYYCAKGEILPLYFDYWGQGTLVTVSS	nM	1.04
